Hello, the source for this data is the antibiotic and cytotoxicity screens of Wong et al. (2023), in case you need it.

System: HSkMC (human skeletal muscle cells)
run description: cytotoxicity call (relative viability < 0.9)
cond: 10 µM
Out of some 39,000 compounds screened, about 1,500 (3.8%) were called active. What follows is part of a selection rich in actives, with near analogues and random picks from the rest.
// one of True = active, False = inactive, no free text

Please let me know the test result on file for O=C(C[C@H]1CC[C@@H]2[C@H](COC[C@H](O)CN2S(=O)(=O)c2ccc(F)cc2)O1)NCCN1CCCCC1 .
False

What call does the record list for C[C@@H]1CCCCO[C@@H](CN(C)C(=O)Nc2ccc(C(F)(F)F)cc2)[C@@H](C)CN([C@H](C)CO)C(=O)c2cc(NS(=O)(=O)c3ccc(Cl)cc3)ccc2O1 ?
False

Given C[C@@H]1CN([C@@H](C)CO)C(=O)c2cc(NS(=O)(=O)c3ccc(F)cc3)ccc2O[C@@H](C)CCCCO[C@@H]1CN(C)C(=O)Nc1cccc2ccccc12 , state the outcome it received in this test.
False

Which outcome was assigned to Cc1ccc(S(=O)(=O)Nc2ccc3c(c2)C(=O)N([C@H](C)CO)C[C@H](C)[C@H](CN(C)C(=O)Nc2cccc4ccccc24)OCCCC[C@H](C)O3)cc1 in this test?
True

GET /call?item= C[C@@H]1CCCCO[C@@H](CN(C)C(=O)Nc2cccc3ccccc23)[C@H](C)CN([C@H](C)CO)C(=O)c2cc(NS(=O)(=O)c3ccc(F)cc3)ccc2O1 returns the recorded outcome of this test.
True

# outcome recorded in this test, key = C[C@@H]1CCCCO[C@H](CN(C)C(=O)Nc2cccc3ccccc23)[C@@H](C)CN([C@H](C)CO)C(=O)c2cc(NS(=O)(=O)c3ccc(Cl)cc3)ccc2O1
True
